Assay Notes: chemical genetic growth profiling, strain panel (AID 1159580);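 also: tested at 20 µM; growth read once vehicle control cultures reached saturation at 30 °C; 1 = growth at the plate median or of vehicle wells; lower values mean less growth of the strain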
Experimental Parameters: S. cerevisiae deletion strains, growth OD, locus YCL069W, strain vba3, active compounds read low
Among all 5,500 compounds or so, about 2,000 (36%) were called active. About 18% were inconclusive and are not listed. The list shows a part of the results.
// NB: equality with 1 counts as 0 (no); only normalized growth strictly below is 1 (yes)

>  <Compound>
CC(C)COCC(CN(Cc1ccccc1)c1ccccc1)N1CCCC1 (centres undefined)

>  <Assigned Class>
0 (no)

$$$$
>  <Compound>
COc1ccc(CCN2CCC(Nc3nc4ccccc4n3Cc3ccc(F)cc3)CC2)cc1

>  <Assigned Class>
1 (yes)

$$$$

Now, please, on to the next compound.
# input I wonder whether O=C1[C@H](CCC(O)c2ccc(F)cc2)[C@@H](c2ccc(O)cc2)N1c1ccc(F)cc1 (some centres undefined) has normalized growth below 1. Can you tell?
# output 1 (yes)

====

Assay Notes: chemical genetic growth profiling, strain panel (AID 1159580)
Experimental Parameters: S. cerevisiae deletion strains, growth OD, locus YJR066W, strain TOR1
Out of some 5,500 compounds screened, about 2,000 (36%) were called active. Inconclusive results (about 18%) are left out. Rule as the data show it: active = normalized growth mostly below about 0.91 (no sharp cut-off); inconclusive = no clear call, values can overlap the other calls; inactive = mostly above about 0.92. The list shows a part of the results.
// classify into active, inactive

>  <Compound>
C=C1CCC2C(CC2(C)C)C(=O)CCC1O (stereo not given)

>  <Assigned Class>
inactive

$$$$
>  <Compound>
COc1c(OC)c2occc2c2oc(=O)ccc12

>  <Assigned Class>
inactive

$$$$
>  <Compound>
O=C1CC2OCC=C3CN4CC[C@]56c7ccccc7N1C5[C@H]2[C@H]3CC46 (stereo not given in full)

>  <Assigned Class>
inactive

$$$$
>  <Compound>
Cc1cccc(Nc2ccccc2C(=O)O)c1C

>  <Assigned Class>
active

$$$$
>  <Compound>
CC(C)(C)CC(C)(C)c1ccc(O)c(Cc2ccc(Cl)cc2Cl)c1

>  <Assigned Class>
inactive

$$$$
>  <Compound>
CCC(C)C(=O)O[C@H]1C[C@H](O)C=C2C=C[C@H](C)[C@H](CC[C@@H](O)C[C@@H](O)CC(=O)O)C21 (stereo not given in full)

>  <Assigned Class>
inactive

$$$$
>  <Compound>
Cc1c(Cl)cccc1Nc1ccccc1C(=O)O

>  <Assigned Class>
active

$$$$
>  <Compound>
O=C1C=C2C=C[C@@H]3C[C@@]2(O1)[C@H]1CCCCN31

>  <Assigned Class>
inactive

$$$$
>  <Compound>
Cc1ccc(C)c(OCCCC(C)(C)C(=O)O)c1

>  <Assigned Class>
inactive

$$$$
>  <Compound>
Oc1ccc(Cl)cc1

>  <Assigned Class>
inactive

$$$$

# input What did this assay record as the result for CCNC(=O)CC[C@H](N)C(=O)O ?
# output inactive

# input What did this assay record as the result for S=c1[nH]nc(Nc2ccc(I)cc2)s1 ?
# output active

# input What did this assay record as the result for CC(C)[C@@H]1CC[C@@H](C)C[C@H]1O ?
# output inactive

# input What did this assay record as the result for O=c1[nH]oc2c1CCNC2 ?
# output inactive

# input What did this assay record as the result for OCc1ccccc1O ?
# output inactive

# input What did this assay record as the result for COc1ccc([C@H]2Oc3cc(OC)cc(OC)c3C[C@H]2O)cc1 ?
# output inactive

# input What did this assay record as the result for Cc1ccc(NS(=O)(=O)c2ccc(Cl)cc2)c(N=Cc2cc(Cl)cc(Cl)c2O)c1 ?
# output active

# input What did this assay record as the result for C=CCSCC1Nc2cc(Cl)c(S(N)(=O)=O)cc2S(=O)(=O)N1 (stereo not given) ?
# output inactive

# input What did this assay record as the result for NS(=O)(=O)c1cc2c(cc1Cl)NC(C(Cl)Cl)NS2(=O)=O (stereo not given) ?
# output inactive

# input What did this assay record as the result for COc1ccc2c(c1)O[C@H]1c3ccc(OC)cc3OC[C@@H]21 ?
# output inactive

# input What did this assay record as the result for CCc1ccn2cc(Nc3ccccc3Cl)nc2c1 ?
# output inactive

# input What did this assay record as the result for Cc1cc(-c2ccccc2)nnc1NCCN1CCOCC1 ?
# output inactive

# input What did this assay record as the result for NC(CO)C(=O)NNCc1ccc(O)c(O)c1O (stereo not given) ?
# output inactive

# input What did this assay record as the result for CO[C@@]1(NC(=O)CSCC#N)C(=O)N2C(C(=O)O)=C(CSc3nnnn3C)CSC21 (stereo not given in full) ?
# output inactive

# input What did this assay record as the result for Cc1ccc(Cl)c(Nc2ccccc2C(=O)O)c1Cl ?
# output inactive

====

// reported normalized growth for each item listed
Assay Notes: chemical genetic growth profiling, strain panel (AID 1159580);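 also: tested at 20 µM; growth read once vehicle control cultures reached saturation at 30 °C; 1 = growth at the plate median or of vehicle wells; lower values mean less growth of the strain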
Experimental Parameters: S. cerevisiae deletion strains, growth OD, locus YAL021C, strain ccr4, active compounds read low
Out of some 5,500 compounds screened, about 2,000 (36%) were called active. Another 18% or so got no clear call; they are omitted. This is one part of the list.
// keep it numeric: no unit symbol after the value

// known answers, use as guide
>  <Compound>
C[C@@H]1C(=O)OC2[C@H](O)C34[C@@H]5OC(=O)[C@@]3(O[C@@H]3OC(=O)[C@H](O)[C@@]34[C@H](C(C)(C)C)[C@H]5O)[C@]21O (some centres not stated)

>  <Property Name>
normalized growth

>  <Numeric Result>
0.952

$$$$
>  <Compound>
CCOC(=O)c1ccc(O)cc1

>  <Property Name>
normalized growth

>  <Numeric Result>
1.03

$$$$
>  <Compound>
CO/N=C(\C(=O)NC1C(=O)N2C(C(=O)OC(C)OC(C)=O)=C(COC(N)=O)CSC12)c1ccco1 (configuration not stated)

>  <Property Name>
normalized growth

>  <Numeric Result>
0.994

$$$$

# input Consider the compound CC(C)NNC(=O)c1ccncc1 and give its measured normalized growth.
# output 1.02

# input Consider the compound Cc1cc(NC(=O)C2=C(O)c3ccccc3S(=O)(=O)N2C)no1 and give its measured normalized growth.
# output 0.959

# input Consider the compound C#CCCCCCCCCCCCC(O)CC(O)CO (configuration not stated) and give its measured normalized growth.
# output 0.979

# input Consider the compound O=C1OC2(c3ccc(O)cc3Oc3cc(O)ccc32)c2ccccc21 and give its measured normalized growth.
# output 1.02

# input Consider the compound O=C1NC(=O)C(=O)C(=O)N1 and give its measured normalized growth.
# output 1

====

Assay Notes: chemical genetic growth profiling, strain panel (AID 1159580);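 also: tested at 20 µM; growth read once vehicle control cultures reached saturation at 30 °C; 1 = growth at the plate median or of vehicle wells; lower values mean less growth of the strain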
Experimental Parameters: S. cerevisiae deletion strains, growth OD, locus YMR058W, strain fet3, active compounds read low
The campaign covered roughly 5,500 compounds. About 2,000 (36%) were called active. Not shown: some 18% with an inconclusive outcome. The list shows a part of the results.
// NB: equality with 1 counts as condition not met; only normalized growth strictly below is condition met

>  <Compound>
CN1C(C(=O)Nc2ccccn2)=C(O)c2ccccc2S1(=O)=O

>  <Assigned Class>
condition met

$$$$
>  <Compound>
Cc1cccc(Nc2ccccc2C(=O)O)c1C

>  <Assigned Class>
condition met

$$$$
>  <Compound>
CC(C)[C@@H]1CC[C@@H](C)C[C@H]1O

>  <Assigned Class>
condition met

$$$$
>  <Compound>
C[C@H]1COC2=C1C(=O)C(=O)c1c2ccc2c1CCCC2(C)C

>  <Assigned Class>
condition met

$$$$
>  <Compound>
C[C@@H]1C(=O)OC2[C@H](O)C34[C@@H]5OC(=O)[C@@]3(O[C@@H]3OC(=O)[C@H](O)[C@@]34[C@H](C(C)(C)C)[C@H]5O)[C@]21O (stereo partly drawn)

>  <Assigned Class>
condition met

$$$$
>  <Compound>
Cc1coc2c1C(=O)C(=O)c1c-2ccc2c1CCCC2(C)C

>  <Assigned Class>
condition met

$$$$

# input I wonder whether Cc1ccc(Cl)c(Nc2ccccc2C(=O)O)c1Cl has normalized growth below 1. Can you tell?
# output condition met

====

Assay Notes: chemical genetic growth profiling, strain panel (AID 1159580);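 also: tested at 20 µM; growth read once vehicle control cultures reached saturation at 30 °C; 1 = growth at the plate median or of vehicle wells; lower values mean less growth of the strain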
Experimental Parameters: S. cerevisiae deletion strains, growth OD, locus YMR125W, strain sto1, active compounds read low
Screen size: about 5,500 compounds; about 2,000 (36%) were called active. Not shown: some 18% with an inconclusive outcome. The list shows a part of the results.
Property Name: normalized growth
// keep it numeric: no unit symbol after the value

// known answers, use as guide
>  <Compound>
CC1OC1P(=O)(O)O (configuration not stated)

>  <Property Name>
normalized growth

>  <Numeric Result>
1.01

$$$$
>  <Compound>
COc1cc(-c2coc3cc(OC)c(OC)c(OC)c3c2=O)cc(OC)c1OC

>  <Property Name>
normalized growth

>  <Numeric Result>
0.992

$$$$
>  <Compound>
CCN(CC)C(=O)c1cccc(C)c1

>  <Property Name>
normalized growth

>  <Numeric Result>
1.03

$$$$
>  <Compound>
CC(=O)N[C@@H](CS)C(=O)O

>  <Property Name>
normalized growth

>  <Numeric Result>
1.01

$$$$
>  <Compound>
Nc1ccn(C2O[C@H](CO)[C@@H](O)[C@@H]2O)c(=O)n1 (some centres not stated)

>  <Property Name>
normalized growth

>  <Numeric Result>
0.996

$$$$

Let us examine a further case.
# input Consider the compound CO[C@@]1(NC(=O)CSCC#N)C(=O)N2C(C(=O)O)=C(CSc3nnnn3C)CSC21 (some centres not stated) and give its measured normalized growth.
# output 1.01
